experimental.target: NLRP3 (Homo sapiens, UniProt Q96P20)
Sequence (Q96P20 whole entry): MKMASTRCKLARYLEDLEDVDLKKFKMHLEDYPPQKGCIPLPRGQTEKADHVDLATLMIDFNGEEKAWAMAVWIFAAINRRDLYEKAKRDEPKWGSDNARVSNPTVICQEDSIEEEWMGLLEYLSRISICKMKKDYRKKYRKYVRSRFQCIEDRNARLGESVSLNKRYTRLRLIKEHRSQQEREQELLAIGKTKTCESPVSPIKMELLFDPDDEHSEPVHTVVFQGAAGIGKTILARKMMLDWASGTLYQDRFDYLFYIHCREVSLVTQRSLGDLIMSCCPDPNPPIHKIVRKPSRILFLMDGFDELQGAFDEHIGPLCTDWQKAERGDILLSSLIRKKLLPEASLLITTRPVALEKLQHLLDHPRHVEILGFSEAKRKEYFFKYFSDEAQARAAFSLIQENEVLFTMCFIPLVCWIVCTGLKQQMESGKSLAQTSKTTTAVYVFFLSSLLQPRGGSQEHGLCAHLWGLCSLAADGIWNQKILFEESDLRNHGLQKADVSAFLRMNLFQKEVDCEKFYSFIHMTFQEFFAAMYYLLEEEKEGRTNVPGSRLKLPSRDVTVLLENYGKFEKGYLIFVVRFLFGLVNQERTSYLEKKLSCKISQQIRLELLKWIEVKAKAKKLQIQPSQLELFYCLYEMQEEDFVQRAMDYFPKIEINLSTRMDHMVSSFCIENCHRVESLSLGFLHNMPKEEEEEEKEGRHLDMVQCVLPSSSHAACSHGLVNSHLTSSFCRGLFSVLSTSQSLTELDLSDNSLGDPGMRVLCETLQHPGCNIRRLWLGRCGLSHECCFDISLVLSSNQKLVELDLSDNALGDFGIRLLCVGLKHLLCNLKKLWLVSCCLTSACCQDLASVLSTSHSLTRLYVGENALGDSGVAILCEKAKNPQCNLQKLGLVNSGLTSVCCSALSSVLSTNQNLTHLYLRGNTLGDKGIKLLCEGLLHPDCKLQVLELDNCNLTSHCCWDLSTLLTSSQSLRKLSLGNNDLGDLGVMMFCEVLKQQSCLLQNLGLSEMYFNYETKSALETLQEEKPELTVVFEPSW
assay.text: THP-1 cells pyroptosis assay
Format: cell-based
Parameters: Seed THP-1 cells (25,000 cells/well) containing 1.0 μg/ml LPS; host or cells: THP-1
study.conditions: LPS 1.0 μg/ml, nigericin 5 μM, resazurin readout, 10 μM top dose (Example 2: top dose of 30 μM)
pIC50: −log10 of the molar value.
readout.kind: pIC50

Consider the worked cases shown below.
COc1cc(-c2ccc3c(c2Nc2nnc(S(=O)(=O)c4ccn(C(C)C)n4)[nH]2)CCC3)ccn1 | ≥ 6.00
CS(=O)(=O)c1nnc(Nc2c3c(c(C#N)c4c2CCC4)CCC3)[nH]1 | ≥ 5.30
O=S(=O)(c1ccn(C2CC2)n1)c1nnc(Nc2c3c(cc4c2CCC4)CCC3)[nH]1 | ≥ 6.30
CN(C)CCNS(=O)(=O)c1nnc(Nc2c3c(cc4c2CCC4)CCC3)[nH]1 | ≥ 6.00

Exercise: // pIC50 lookup, key: `CCN(CC)CCCS(=O)(=O)c1nnc(Nc2c(-c3ccccc3)cc(F)c3c2CCC3)[nH]1`
Key: ≥ 5.00

Exercise: // pIC50 lookup, key: `CN1CCN(S(=O)(=O)c2nnc(Nc3c4c(cc5c3CCC5)CCC4)[nH]2)CC1=O`
Key: ≥ 5.30

Exercise: // pIC50 lookup, key: `COc1cc(-c2cc(-c3ncco3)c3c(c2Nc2nnc(S(=O)(=O)N4CCC(N(C)C)CC4)[nH]2)CCC3)ccn1`
Key: ≥ 5.00

Exercise: // pIC50 lookup, key: CN(C)CC1CCN(S(=O)(=O)c2nnc(Cc3c4c(cc5c3CCC5)CCC4)[nH]2)C1 (stereo not shown)
Key: ≥ 5.30

###

assay.text: PK, intravenous administration
Format: in vivo
study.conditions: rat, plasma, male Sprague Dawley rats, dose about 1 mg/kg
readout.kind: AUC (ng·h/mL)
Your answer should be a plain number; it is taken to be in ng·h/mL.

Consider the worked cases shown below.
CS(=O)(=O)c1nnc(Nc2c3c(cc4c2CCC4)CCC3)[nH]1 | 1000
COc1cc(-c2cc(F)cc(C(C)C)c2Nc2nnc(S(=O)(=O)c3ccccc3)[nH]2)ccn1 | 545
CCN(CC)CCNS(=O)(=O)c1nnc(Nc2c3c(cc4c2CCC4)CCC3)[nH]1 | 278
COc1cc(-c2ccc3c(c2Nc2nnc(S(=O)(=O)N4CC5(CCN(C)C5)C4)[nH]2)CCO3)ccn1 | 182
Cn1ccc(S(=O)(=O)c2nnc(Nc3c4c(cc5c3CCC5)CCC4)[nH]2)n1 | 814
Cc1cc(-c2cc(F)cc(C(C)C)c2Nc2nnc(S(=O)(=O)N3CCC(N(C)C)CC3)[nH]2)ccn1 | 153
CN(C)CCNS(=O)(=O)c1nnc(Nc2c3c(cc4c2CCC4)CCC3)[nH]1 | 354

Exercise: // AUC lookup, key: `CN1CCOCC12CCN(S(=O)(=O)c1nnc(Nc3c4c(cc5c3CCC5)CCC4)[nH]1)CC2`
Key: 315

###

experimental.target: NLRP3 (Homo sapiens)
assay.text: THP-1 cells pyroptosis assay
Format: cell-based
Design: Seed THP-1 cells (25,000 cells/well) containing 1.0 μg/ml LPS; host or cells: THP-1
study.conditions: LPS 1.0 μg/ml, nigericin 5 μM, resazurin readout, 10 μM top dose (Example 2: top dose of 30 μM)
pIC50: −log10 of the molar value.
readout.kind: pIC50

CN(C)C1CCN(S(=O)(=O)c2nnc(Nc3c(-c4ccncc4)ccc4c3CCC4)[nH]2)CC1 [Example 219] | ≥ 6.30
CN1CCC(COc2cc(-c3ccc4c(c3Nc3nnc(S(C)(=O)=O)[nH]3)CCC4)ccn2)C1 (centres unmarked) [Example 358] | ≥ 5.00
COCC(C)Oc1cc(-c2ccc3c(c2Nc2nnc(S(C)(=O)=O)[nH]2)CCC3)ccn1 (centres unmarked) [Example 237] | ≥ 5.30
O=S(=O)(CCCO)c1nnc(Nc2c3c(cc4c2CCC4)CCC3)[nH]1 [Example 47] | ≥ 5.30
O=S(=O)(c1nnc(Nc2c3c(cc4c2CCC4)CCC3)[nH]1)N1CCC(N2CCCC2)CC1 [Example 124] | ≥ 6.00
Cc1ccc(C(C)C)c(Nc2nnc(S(=O)(=O)N3CCC(N(C)C)CC3)[nH]2)c1 [Example 206] | ≥ 5.00
CN(C)C[C@H]1CCN(S(=O)(=O)c2nnc(Nc3c4c(cc5c3CCC5)CCC4)[nH]2)C1 [Example 148] | ≥ 6.30

Continue with the next compound.
Exercise: // pIC50 lookup, key: CN1CCN(C2CCN(S(=O)(=O)c3nnc(Nc4c5c(cc6c4CCC6)CCC5)[nH]3)CC2)CC1 [Example 135]
Key: ≥ 5.30
